test system: Tyrosine-protein kinase ABL1 (Homo sapiens), P00519 [Y253F]; details: at 1 µM
Would you please tag the item criterion met when its inhibition is 30% or above, and criterion not met when it is below?

ITEM SMILES: CC(C)COC(=O)c1ccc2c(c1)/C(=C/Nc1ccc(S(N)(=O)=O)cc1)C(=O)N2
DISCRETE LABEL: criterion not met
--
ITEM SMILES: Cc1ccc2c(-c3ccnc(Nc4ccccc4)n3)c(-c3ccc(F)cc3)nn2n1
DISCRETE LABEL: criterion met
--
ITEM SMILES: COc1ccc(-c2oc3ncnc(N)c3c2-c2ccc(NC(=O)Nc3cc(C(F)(F)F)ccc3F)cc2)cc1
DISCRETE LABEL: criterion met
--
ITEM SMILES: COc1cc(N2CCN(C(C)C)CC2)ccc1Nc1nc(Nc2ccc(F)cc2C(N)=O)c2cc[nH]c2n1
DISCRETE LABEL: criterion not met
--
ITEM SMILES: Fc1cccc(COc2ccc(Nc3ncnc4sc(-c5ccco5)cc34)cc2Cl)c1
DISCRETE LABEL: criterion not met

====

target: Protein kinase C theta type (Homo sapiens) (UniProt Q04759); conditions: at 1 µM;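 further: each value is a mean inhibition of PKC-theta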
Sequence (Q04759 whole entry, looked up): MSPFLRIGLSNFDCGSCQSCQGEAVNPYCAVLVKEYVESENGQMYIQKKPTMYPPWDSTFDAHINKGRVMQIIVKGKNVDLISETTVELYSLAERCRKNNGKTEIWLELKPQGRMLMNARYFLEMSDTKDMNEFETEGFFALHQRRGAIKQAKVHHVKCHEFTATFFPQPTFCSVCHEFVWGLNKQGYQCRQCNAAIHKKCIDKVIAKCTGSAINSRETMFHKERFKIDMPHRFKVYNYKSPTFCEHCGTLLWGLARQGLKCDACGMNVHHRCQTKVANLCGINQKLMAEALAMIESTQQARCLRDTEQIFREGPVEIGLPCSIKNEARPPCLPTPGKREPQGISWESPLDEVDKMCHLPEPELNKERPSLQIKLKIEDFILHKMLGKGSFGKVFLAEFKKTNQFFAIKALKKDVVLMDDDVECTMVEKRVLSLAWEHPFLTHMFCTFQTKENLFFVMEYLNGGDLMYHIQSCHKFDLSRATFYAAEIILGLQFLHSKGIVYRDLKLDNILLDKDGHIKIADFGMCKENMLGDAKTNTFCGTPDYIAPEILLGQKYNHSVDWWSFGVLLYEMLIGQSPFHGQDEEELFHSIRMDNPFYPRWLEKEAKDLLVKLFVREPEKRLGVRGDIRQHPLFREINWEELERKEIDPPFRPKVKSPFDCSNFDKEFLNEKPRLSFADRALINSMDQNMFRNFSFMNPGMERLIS
READOUT TYPE: inhibition (%)

ITEM SMILES: CC(C)(CO)CNC(=O)c1ccc2c(c1)/C(=N/Nc1ccc(S(N)(=O)=O)cc1)C(=O)N2
READOUT TYPE: inhibition
ASSAY VALUE: 0.9
--
ITEM SMILES: COC(=O)c1sc(-n2cnc3cc(OC)c(OC)cc32)cc1OCc1ccccc1C(F)(F)F
READOUT TYPE: inhibition
ASSAY VALUE: 0.41
--
ITEM SMILES: COc1cccc(-n2ncc3c(N/N=C/c4ccc(F)cc4)ncnc32)c1
READOUT TYPE: inhibition
ASSAY VALUE: 4.19
--
ITEM SMILES: COc1ccc(-c2nn3ncccc3c2-c2ccnc(Nc3ccc4c(c3)OCCO4)n2)cc1
READOUT TYPE: inhibition
ASSAY VALUE: 2.58
--
ITEM SMILES: COC(=O)Nc1nc2ccc(Oc3ccc(NC(=O)Nc4cccc(Cl)c4)cc3)cc2[nH]1
READOUT TYPE: inhibition
ASSAY VALUE: 0.17

====

target: Tyrosine-protein kinase JAK2 (Homo sapiens); conditions: at 0.1 µM
READOUT TYPE: inhibition (%)

ITEM SMILES: COC(=O)c1sc(-n2cnc3cc(OC)c(OC)cc32)cc1OCc1ccccc1C(F)(F)F
ASSAYED TARGET: Tyrosine-protein kinase JAK2 (Homo sapiens)
ASSAY VALUE: 0.91
--
ITEM SMILES: CCn1c(-c2nonc2N)nc2c(C#CC(C)(C)O)nc(OC[C@H](N)c3ccccc3)cc21
ASSAYED TARGET: Tyrosine-protein kinase JAK2 (Homo sapiens)
ASSAY VALUE: -0.06
--
ITEM SMILES: c1cc(-c2cnn3nc(N4CCOCC4)ccc23)nc(NC2CC2)n1
ASSAYED TARGET: Tyrosine-protein kinase JAK2 (Homo sapiens)
ASSAY VALUE: 2.21
--
ITEM SMILES: CC(=O)NCc1cccc(C#Cc2cncnc2Nc2ccc(OCc3cccc(F)c3)c(Cl)c2)c1
ASSAYED TARGET: Tyrosine-protein kinase JAK2 (Homo sapiens)
ASSAY VALUE: -0.2
--
ITEM SMILES: O=S(=O)(CCNCc1ccc(-c2ccc3ncnc(Nc4ccc(OCc5cccc(F)c5)c(Cl)c4)c3c2)o1)c1ccccc1
ASSAYED TARGET: Tyrosine-protein kinase JAK2 (Homo sapiens)
ASSAY VALUE: 1.04
--
ITEM SMILES: Nc1nc(-c2ccc(F)cc2)c(-c2ccc3ncccc3n2)s1
ASSAYED TARGET: Tyrosine-protein kinase JAK2 (Homo sapiens)
ASSAY VALUE: 2.05
--
ITEM SMILES: NS(=O)(=O)c1ccc(N/N=C2\C(=O)Nc3ccc4ncccc4c32)cc1
ASSAYED TARGET: Tyrosine-protein kinase JAK2 (Homo sapiens)
ASSAY VALUE: 1.52
--
ITEM SMILES: CN(C)CCOc1ccc(-c2nc(-c3ccncc3)c(-c3ccc4c(c3)CC/C4=N\O)[nH]2)cc1
ASSAYED TARGET: Tyrosine-protein kinase JAK2 (Homo sapiens)
ASSAY VALUE: 1.76
--
ITEM SMILES: COc1ccc(-c2cc3c(N)ncnc3o2)cc1
ASSAYED TARGET: Tyrosine-protein kinase JAK2 (Homo sapiens)
ASSAY VALUE: -0.86
--
ITEM SMILES: Nc1nc(-c2cccc(Cl)c2)c(-c2ccc3ncccc3n2)s1
ASSAYED TARGET: Tyrosine-protein kinase JAK2 (Homo sapiens)
ASSAY VALUE: 0.64
--
ITEM SMILES: COC(=O)Nc1nc2ccc(Oc3ccc(NC(=O)Nc4cccc(Cl)c4)cc3)cc2[nH]1
ASSAYED TARGET: Tyrosine-protein kinase JAK2 (Homo sapiens)
ASSAY VALUE: 0.38
--
ITEM SMILES: [O-][S+]1CCN(Cc2ccc(-c3ccc4ncnc(Nc5ccc(OCc6cccc(F)c6)c(Cl)c5)c4c3)o2)CC1
ASSAYED TARGET: Tyrosine-protein kinase JAK2 (Homo sapiens);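 further: mean percent inhibition of JAK2 activity, from the GSK PKIS kinase panel screen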
ASSAY VALUE: 1.51

====

Listed molecules paired with reported inhibition
target: Leukocyte tyrosine kinase receptor (Homo sapiens); settings: at 0.1 µM
Description: GSK_PKIS: LTK mean inhibition at 0.1 uM [Nanosyn]

ITEM SMILES: Fc1ccc(-c2nn3ncccc3c2-c2ccnc(Nc3ccc4c(c3)OCCO4)n2)cc1
inhibition [%]: 3.99
//
ITEM SMILES: COc1cccc(-n2ncc3c(N/N=C/c4ccc(F)cc4)ncnc32)c1
inhibition [%]: 4.1
//
ITEM SMILES: Cc1cccc2c1NC(=O)/C2=N\Nc1ccc(S(N)(=O)=O)cc1
inhibition [%]: 2.01
//
ITEM SMILES: CCN1CCC(CC(=O)Nc2n[nH]c3nnc(-c4cccc(F)c4F)cc23)CC1
inhibition [%]: 2.06
//
ITEM SMILES: CCNC(=O)O[C@H]1CN[C@H](C#Cc2cc3ncnc(Nc4ccc(OCc5cccc(F)c5)c(Cl)c4)c3s2)C1
inhibition [%]: 3.21
//
ITEM SMILES: Cc1ccc2c(-c3ccnc(Nc4ccccc4)n3)c(-c3ccc(F)cc3)nn2n1
inhibition [%]: 2.45
//
ITEM SMILES: COc1ccc(-c2oc3ncnc(N)c3c2-c2ccc(NC(=O)Nc3cc(C(F)(F)F)ccc3F)cc2)cc1
inhibition [%]: 4.21

====

target: Tyrosine-protein kinase ITK/TSK (Homo sapiens); details: at 0.1 µM;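 further: mean percent inhibition of ITK from the GSK PKIS screen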
Listed compounds paired with reported inhibition

ITEM SMILES: COc1cccc(-n2ncc3c(N/N=C/c4ccc(F)cc4)ncnc32)c1
inhibition, %: 1.34
//
ITEM SMILES: Cc1ccc2c(-c3ccnc(Nc4ccccc4)n3)c(-c3ccc(F)cc3)nn2n1
inhibition, %: 1.54
//
ITEM SMILES: NS(=O)(=O)c1ccc(Nc2ncc(-c3ccccc3)o2)cc1
inhibition, %: 1.19
//
ITEM SMILES: CC(=O)NCc1cccc(C#Cc2cncnc2Nc2ccc(OCc3cccc(F)c3)c(Cl)c2)c1
inhibition, %: 0.36
//
ITEM SMILES: CCn1c(-c2nonc2N)nc2c(C#CC(C)(C)O)nc(OC[C@H](N)c3ccccc3)cc21
inhibition, %: 2.08
//
ITEM SMILES: CCNC(=O)O[C@H]1CN[C@H](C#Cc2cc3ncnc(Nc4ccc(OCc5cccc(F)c5)c(Cl)c4)c3s2)C1
inhibition, %: 1.32
//
ITEM SMILES: COc1ccc2[nH]c3c4[nH]c5ccc(OC)cc5c4c4c(c3c2c1)C(=O)NC4=O
inhibition, %: 1.85
//
ITEM SMILES: COc1ccc(-c2cc(-c3c[nH]nc3-c3ccccn3)ccn2)cc1
inhibition, %: 1.28

====

system: Epidermal growth factor receptor (Homo sapiens), P00533 [L858R,T790M]; settings: at 1 µM
Sequence (P00533 whole entry T790M/L858R, looked up): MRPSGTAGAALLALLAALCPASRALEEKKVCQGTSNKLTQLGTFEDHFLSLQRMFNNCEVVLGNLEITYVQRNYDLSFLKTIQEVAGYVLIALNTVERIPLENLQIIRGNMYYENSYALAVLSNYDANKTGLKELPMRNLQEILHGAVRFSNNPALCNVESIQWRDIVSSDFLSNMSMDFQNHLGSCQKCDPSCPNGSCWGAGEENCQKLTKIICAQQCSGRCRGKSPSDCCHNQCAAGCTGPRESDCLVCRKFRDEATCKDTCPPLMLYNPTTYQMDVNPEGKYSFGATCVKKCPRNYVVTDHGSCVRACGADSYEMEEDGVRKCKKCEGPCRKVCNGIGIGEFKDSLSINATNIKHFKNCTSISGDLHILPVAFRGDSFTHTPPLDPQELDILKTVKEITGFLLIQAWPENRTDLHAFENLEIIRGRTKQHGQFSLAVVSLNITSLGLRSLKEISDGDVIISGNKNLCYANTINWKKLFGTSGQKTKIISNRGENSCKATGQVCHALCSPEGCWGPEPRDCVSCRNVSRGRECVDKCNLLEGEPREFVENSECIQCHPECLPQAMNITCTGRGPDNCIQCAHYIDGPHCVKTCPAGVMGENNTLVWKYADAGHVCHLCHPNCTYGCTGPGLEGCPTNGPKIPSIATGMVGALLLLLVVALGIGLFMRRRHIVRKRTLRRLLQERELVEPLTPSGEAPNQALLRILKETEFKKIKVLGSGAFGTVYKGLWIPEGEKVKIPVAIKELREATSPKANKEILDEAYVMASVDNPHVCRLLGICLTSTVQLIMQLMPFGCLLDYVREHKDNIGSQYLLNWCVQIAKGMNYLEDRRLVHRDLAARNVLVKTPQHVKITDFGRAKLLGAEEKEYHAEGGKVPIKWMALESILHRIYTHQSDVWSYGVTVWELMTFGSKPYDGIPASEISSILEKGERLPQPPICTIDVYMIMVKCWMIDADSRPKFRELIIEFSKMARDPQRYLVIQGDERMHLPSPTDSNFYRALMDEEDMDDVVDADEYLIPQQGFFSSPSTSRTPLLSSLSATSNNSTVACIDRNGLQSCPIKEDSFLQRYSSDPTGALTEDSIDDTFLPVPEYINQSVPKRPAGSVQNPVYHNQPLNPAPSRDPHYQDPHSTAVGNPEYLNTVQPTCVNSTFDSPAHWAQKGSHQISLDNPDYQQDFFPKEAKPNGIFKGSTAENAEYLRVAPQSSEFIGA
Would you please tag the item Fulfilled when its inhibition is 8% or above, and Not fulfilled when it is below?

ITEM SMILES: c1ccc(-c2nc3n(c2-c2ccc4c(c2)OCO4)CCC3)nc1
DISCRETE LABEL: Not fulfilled
--
ITEM SMILES: Cc1ccc2c(-c3ccnc(Nc4ccccc4)n3)c(-c3ccc(F)cc3)nn2n1
DISCRETE LABEL: Fulfilled
--
ITEM SMILES: CNC(=O)c1cc(-c2ccc(F)cc2)cc(-c2ccc(S(=O)(=O)N3CCCC3)cc2)c1N
DISCRETE LABEL: Not fulfilled
--
ITEM SMILES: Nc1nc(-c2ccc(F)cc2)c(-c2ccc3ncccc3n2)s1
DISCRETE LABEL: Fulfilled

====

target: Receptor-type tyrosine-protein kinase FLT3 (Homo sapiens) (UniProt P36888); details: at 0.1 µM;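 further: mean inhibition value from the GSK PKIS kinase screening set, with the assay run by Nanosyn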
Sequence (P36888 whole entry): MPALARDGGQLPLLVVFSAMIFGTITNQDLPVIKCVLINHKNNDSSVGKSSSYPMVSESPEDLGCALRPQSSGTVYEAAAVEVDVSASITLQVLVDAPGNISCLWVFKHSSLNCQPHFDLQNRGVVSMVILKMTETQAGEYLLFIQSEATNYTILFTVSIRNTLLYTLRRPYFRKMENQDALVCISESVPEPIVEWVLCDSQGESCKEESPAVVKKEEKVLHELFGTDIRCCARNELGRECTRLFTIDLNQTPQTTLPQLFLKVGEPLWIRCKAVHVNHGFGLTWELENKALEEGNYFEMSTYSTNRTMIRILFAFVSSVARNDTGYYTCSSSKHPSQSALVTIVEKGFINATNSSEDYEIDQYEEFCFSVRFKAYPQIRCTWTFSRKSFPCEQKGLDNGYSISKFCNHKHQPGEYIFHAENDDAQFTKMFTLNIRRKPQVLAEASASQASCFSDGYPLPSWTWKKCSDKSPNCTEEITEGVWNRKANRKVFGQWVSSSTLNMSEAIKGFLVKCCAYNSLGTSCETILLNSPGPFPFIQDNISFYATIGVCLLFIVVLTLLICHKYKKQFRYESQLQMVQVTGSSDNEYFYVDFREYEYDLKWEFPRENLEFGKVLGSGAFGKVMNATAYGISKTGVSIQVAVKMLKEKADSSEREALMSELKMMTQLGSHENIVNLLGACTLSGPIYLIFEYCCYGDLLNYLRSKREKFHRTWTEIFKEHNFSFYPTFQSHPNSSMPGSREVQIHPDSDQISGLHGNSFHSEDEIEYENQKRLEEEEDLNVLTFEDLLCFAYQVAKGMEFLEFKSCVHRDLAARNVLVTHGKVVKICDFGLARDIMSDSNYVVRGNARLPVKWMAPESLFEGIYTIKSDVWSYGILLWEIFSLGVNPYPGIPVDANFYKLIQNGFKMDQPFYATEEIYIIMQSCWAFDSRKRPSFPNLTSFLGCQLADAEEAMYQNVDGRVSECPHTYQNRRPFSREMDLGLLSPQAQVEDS

ITEM SMILES: Fc1ccc(-c2nn3ccccc3c2-c2ccncc2)cc1
inhibition (%): -0.06
--
ITEM SMILES: NS(=O)(=O)c1ccc(Nc2ncc(-c3ccccc3)o2)cc1
inhibition (%): 35.3
--
ITEM SMILES: COc1ccc(-c2oc3ncnc(N)c3c2-c2ccc(NC(=O)Nc3cc(C(F)(F)F)ccc3F)cc2)cc1
inhibition (%): 22.1
--
ITEM SMILES: CNC(=O)c1cc(-c2ccc(F)cc2)cc(-c2ccc(S(=O)(=O)N3CCCC3)cc2)c1N
inhibition (%): 3.03
--
ITEM SMILES: O=C(O[C@H]1CN[C@H](C#Cc2cc3ncnc(Nc4ccc(Cc5ccccc5)cc4)c3s2)C1)N1CCOCC1
inhibition (%): -1.61
--
ITEM SMILES: Cc1cccc2c1NC(=O)/C2=N\Nc1ccc(S(N)(=O)=O)cc1
inhibition (%): 2.88
--
ITEM SMILES: CCCN1CCC(c2ccc(Nc3nc(Nc4cc(F)ccc4C(N)=O)c4cc[nH]c4n3)c(OC)c2)CC1
inhibition (%): 4.46
--
ITEM SMILES: COc1cc(/C=N/Nc2ncnc3[nH]ncc23)ccc1O
inhibition (%): 3.29
--
ITEM SMILES: CN1CCC(n2cnc(-c3ccc(F)cc3)c2-c2ccnc(Nc3ccccc3)n2)CC1
inhibition (%): 0.8
--
ITEM SMILES: CC(=O)NCc1cccc(C#Cc2cncnc2Nc2ccc(OCc3cccc(F)c3)c(Cl)c2)c1
inhibition (%): 0.26
--
ITEM SMILES: CCn1c(-c2nonc2N)nc2c(C#CC(C)(C)O)nc(OC[C@H](N)c3ccccc3)cc21
inhibition (%): 2.64
--
ITEM SMILES: Nc1nc(-c2cccc(Cl)c2)c(-c2ccc3ncccc3n2)s1
inhibition (%): 2.09
--
ITEM SMILES: COc1ccc2[nH]c3c4[nH]c5ccc(OC)cc5c4c4c(c3c2c1)C(=O)NC4=O
inhibition (%): 28.6
--
ITEM SMILES: COc1ccc(-c2cc3c(N)ncnc3o2)cc1
inhibition (%): -0.73
--
ITEM SMILES: COc1cc(N2CCN(C(C)C)CC2)ccc1Nc1nc(Nc2ccc(F)cc2C(N)=O)c2cc[nH]c2n1
inhibition (%): 2.47
